Origin of measurements: patent US20140171438A1

Listed next: entries and their corresponding log10 of MIC50.
System: Staphylococcus aureus ATCC 27660
EXPERIMENT: Antimicrobial activity, MIC, modified microbroth dilution
Type: cell-based
MEASUREMENT CONTEXT: ATCC27660, S. aureus (27660), 18 hours incubation, read-out: MIC (expressed as MIC50) S. aureus
RESULT TYPE: log10 of MIC50 (log10 of the value in µg/mL)

[
  {
    "SMILES ENTRY": "N=C(N)NCCCCC(=O)Nc1cc(C(F)(F)F)cc(NC(=O)Nc2cccc(Oc3cc(NCCCN)cc(C(F)(F)F)c3)c2)c1SCCN",
    "log10 of MIC50": -0.41
  },
  {
    "SMILES ENTRY": "N=C(N)NCCCCC(=O)Nc1cc(C(F)(F)F)cc(NC(=O)Nc2ccc3nc(NC(=O)Nc4cc(C(F)(F)F)cc(NC(=O)CCCCNC(=N)N)c4O[C@@H]4CCNC4)sc3c2)c1O[C@@H]1CCNC1",
    "log10 of MIC50": -1.01
  },
  {
    "SMILES ENTRY": "NCCCc1cc(NC(=O)Nc2cc(C(F)(F)F)c(SCCN)cc2SCCN)ccc1Oc1ccc(NCCN)c(C(F)(F)F)c1",
    "log10 of MIC50": 0.19
  },
  {
    "SMILES ENTRY": "N=C(N)NCCCCC(=O)Nc1cc(C(F)(F)F)cc(NC(=O)Nc2ccc(Oc3cc(N)cc(C(F)(F)F)c3)cc2)c1O[C@@H]1CCNC1",
    "log10 of MIC50": -0.11
  },
  {
    "SMILES ENTRY": "NCCCc1cc(NC(=O)Nc2ccc(SCCN)c(C(F)(F)F)c2)ccc1Oc1ccc(NCCN)c(C(F)(F)F)c1",
    "log10 of MIC50": 0.19
  },
  {
    "SMILES ENTRY": "N=C(N)NCCCCC(=O)Nc1cc(C(F)(F)F)cc(NC(=O)Nc2ccc(Oc3cc(N)cc(C(F)(F)F)c3)cc2)c1SCCN",
    "log10 of MIC50": -0.11
  },
  {
    "SMILES ENTRY": "N=C(N)NCCCCC(=O)Nc1cc(C(F)(F)F)cc(NC(=O)Nc2cccc(Oc3cc(NCCCN)cc(C(F)(F)F)c3)c2)c1O[C@@H]1CCNC1",
    "log10 of MIC50": -0.71
  },
  {
    "SMILES ENTRY": "N=C(N)NCCCCC(=O)Nc1cc(C(F)(F)F)cc(NC(=O)Nc2ccc(Oc3cc(NCCCN)cc(C(F)(F)F)c3)cc2)c1SCCN",
    "log10 of MIC50": -0.71
  },
  {
    "SMILES ENTRY": "N=C(N)NCCCC(=O)Nc1cc(C(F)(F)F)cc(NC(=O)Nc2ccc3nc(-c4ccc(NCCCN)cc4)sc3c2)c1SCCN",
    "log10 of MIC50": -1.01
  }
]
